# tested target: GST-TAPP1 (Homo sapiens)
# Sequence (Q9HB21 whole entry): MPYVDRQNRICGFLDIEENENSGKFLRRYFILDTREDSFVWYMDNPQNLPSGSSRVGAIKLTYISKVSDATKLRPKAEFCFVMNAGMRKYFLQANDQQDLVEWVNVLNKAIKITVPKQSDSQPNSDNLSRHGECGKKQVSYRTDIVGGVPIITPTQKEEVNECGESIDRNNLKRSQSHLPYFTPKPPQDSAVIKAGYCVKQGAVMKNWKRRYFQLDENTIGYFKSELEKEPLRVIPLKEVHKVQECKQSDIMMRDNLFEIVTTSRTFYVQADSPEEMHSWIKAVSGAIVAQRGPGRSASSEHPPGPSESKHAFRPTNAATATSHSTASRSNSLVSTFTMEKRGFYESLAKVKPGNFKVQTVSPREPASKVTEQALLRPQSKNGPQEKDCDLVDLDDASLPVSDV
# procedure details: Competitive FP assay, displacement of BODIPY-TMR-PI(3,4)P2 tracer from GST-TAPP1
# Assay type: binding
# protocol conditions: read-out: IC50
parameter measured: pIC50
The value called pIC50 is obtained by taking minus log10 of the concentration in mol/L.

Requested read-out pIC50, target or system GST-TAPP1 (Homo sapiens), entry CCCCCCCC(=O)OC[C@H](COP(=O)(O)O[C@H]1[C@H](O)[C@@H](O)[C@H](OP(=O)(O)O)[C@@H](OP(=O)(O)O)[C@H]1O)OC(=O)CCCCCCC [diC8-PI(3,4)P2] 6.78

Ref: patent US20050009124A1
